Test system: HOP-62 NSCLC
testName: NCI tumour cell line growth inhibition, 48 h
valueKind: TGI

Recorded results for 4 compounds are shown here.
[[record]]
compound = "CC(=O)c1nc2ccccc2n1CCN1CCN(C)CC1"
valuekind = "TGI"
testvalue = "> 100 µM"

[[record]]
compound = "COc1cc(C2=NNC(c3ccc(N(C)C)cc3)C2)cc(OC)c1OC (stereo not given)"
valuekind = "TGI"
testvalue = "> 100 µM"

[[record]]
compound = "COc1ccc(OC)c(NC(=O)C2=C(C)NC(C)=C(C(=O)Nc3cc(OC)ccc3OC)C2c2ccco2)c1"
valuekind = "TGI"
testvalue = "> 100 µM"

[[record]]
compound = "COC1=CC(c2ccc[nH]2)=N/C1=C\\c1[nH]c(C)c(C(=O)CCCCC(=O)NCc2ccccc2)c1C"
valuekind = "TGI"
testvalue = "10.2 µM"


Exercise: Look at this compound and give its reported TGI. O=C(Oc1cccc2cccnc12)c1cc2cc(CCl)ccc2oc1=O
Key: > 100 µM

* * *

Tested on: SK-MEL-5 melanoma
testName: NCI tumour cell line growth inhibition, 48 h
valueKind: TGI (µM)
Reply with just the number (in µM).

[[record]]
compound = "COc1cc(Br)cc2cc(C3=CSC4=NCCN34)c(=O)oc12"
testsystem = "SK-MEL-5 melanoma"
testvalue = 35.3


Exercise: Form field: reported TGI of CC1CSC(=S)N1C(=O)N1C(=S)SCC1C (centres undefined)
Key: 34.8

Exercise: Sample COc1ccc(/C=C/c2nnc(/C=C/c3ccc(OC)c(OC)c3)o2)cc1OC — what was its TGI?
Key: 10.1

* * *

Test system: SK-MEL-2 melanoma
testName: NCI tumour cell line growth inhibition, 48 h; in the data active = GI50 below about 0.43 µM; inactive = the rest
Bench note: report the call from Yes = active, No = inactive

Examples with answers:
[[record]]
compound = "O=C(CCl)Nc1ccc2c(c1)C(=O)c1ccccc1C2=O"
answerlabel = "No"

[[record]]
compound = "C=C1C(=O)O[C@H]2[C@H]1CC/C(COC(=O)CCCCCCC(=O)OC/C1=C/CC[C@@]3(C)O[C@H]3[C@H]3OC(=O)C(=C)[C@@H]3CC1)=C\\CC[C@@]1(C)O[C@@H]21"
answerlabel = "No"

[[record]]
compound = "C=Cc1ccccc1 (tested in a mixture with another compound)"
answerlabel = "No"


Moving on to the next compound.
Exercise: Test call for this compound, please: Cn1cc(-c2nc3c(F)cc4[nH]ncc4c3c3c2CCCC3)c(C(F)(F)F)n1
Key: No

* * *

Documented TGI across a set of compounds
Test system: A498 renal
testName: NCI tumour cell line growth inhibition, 48 h

[[record]]
compound = "COc1ccc(C2N(c3ccc(F)c([N+](=O)[O-])c3)C(=O)N3C(c4ccc(OC)cc4)N(c4ccc(F)c([N+](=O)[O-])c4)C(=O)N23)cc1 (stereo not drawn)"
testvalue = "> 100 µM"

[[record]]
compound = "CCOC(=O)NC1C2CC(=O)C(O2)C1OCc1ccccc1 (stereo not drawn)"
testvalue = "> 100 µM"


Continue with the next compound.
Exercise: Report TGI for CCCCCCCCc1cc[n+](CC(=O)c2ccc(Br)cc2)cc1 please.
Key: 18.1 µM

* * *

Test system: SW-620 colon
testName: NCI tumour cell line growth inhibition, 48 h
valueKind: TGI

Exercise: Item Cc1ccc(Nc2nc3nc[nH]c3c(=O)[nH]2)cc1CO has what recorded TGI?
Key: 32 µM

Exercise: Which TGI value is on record for COc1cc(C(=O)NO)ccc1O ?
Key: > 100 µM

Exercise: Tell me the measured TGI of CN(C)CCn1nc2c3c(c(C(=O)NCCCN(C)CCCNC(=O)c4ccc5c6c(nn5CCN(C)C)-c5ccccc5Nc46)ccc31)Nc1ccccc1-2 , please.
Key: 3.49 µM

Exercise: Consider the compound O=C(N/N=C(/COc1ccccc1Cl)N=Cc1cccnc1)c1ccncc1 and give its measured TGI.
Key: > 100 µM

Exercise: # input compound: COc1cc2c(c(OC)c1OC)-c1cccc(=O)cc1C(NC(C)=O)CC2 (stereo not given) ; wanted: its TGI
Key: > 100 µM

Exercise: GET /values?readout=TGI&item= O=C(OC1CC(n2cc(F)c(=O)[nH]c2=O)OC1CSC(=O)c1ccccc1)c1ccccc1 (stereo not given)
Key: > 100 µM

Exercise: Need TGI, item COCC(=O)Oc1cc(-c2ccc(C)cc2C)c(OC(=O)COC)c(-c2ccc(C)cc2C)c1
Key: 18.3 µM

Exercise: GET /values?readout=TGI&item= COC(OC)(c1ccccc1)C(Br)Br
Key: 34.5 µM

Exercise: Can you share its TGI? I mean this compound: COc1cccc(C2c3cc4c(cc3OC(NNc3ccccc3)C2C)OCO4)c1O (stereo not given)
Key: 25.5 µM

Exercise: Reported TGI for COc1ccc(NC(=S)N/N=C/c2cccc(C)n2)cc1 : what is it?
Key: > 100 µM

Data credit: PubChem BioAssay (NCI)
